Attribution: the supplement of paper PMC3937590

system: SKBR3; assay: -log10 GI50 (growth inhibition 50%) (-log10(M)); higher = more potent growth inhibition
result-type: -log10 GI50

O=C1NC(=O)/C(=C/c2ccc3nccc(-c4ccncc4)c3c2)S1 :: 6.82
COc1cccc2c1C(=O)c1c(O)c3c(c(O)c1C2=O)C[C@@](O)(C(=O)CO)C[C@@H]3O[C@H]1C[C@H](N)[C@H](O)[C@H](C)O1 [Doxorubicin] :: 6.9
CCc1c2c(nc3ccc(OC(=O)N4CCC(N5CCCCC5)CC4)cc13)-c1cc3c(c(=O)n1C2)COC(=O)[C@]3(O)CC [CPT-11] :: 5.49

###

system: MDAMB361; assay: -log10 GI50 (growth inhibition 50%) (-log10(M)); higher = more potent growth inhibition
result-type: -log10 GI50

CCNCCCCNCCCCNCCCCNCCCCNC/C=C/CNCCCCNCCCCNCCCCNCCCCNCC :: 5.78
COC(=O)Nc1nc2cc(C(=O)c3ccccc3)ccc2[nH]1 [Mebendazole] :: 6.24
C[C@@H](Oc1cc(-n2cnc3ccc(CN4CCN(C)CC4)cc32)sc1C(N)=O)c1ccccc1C(F)(F)F :: 8.72
O=C1c2ccccc2-[n+]2ccc3c([nH]c4ccccc43)c21 [Fascaplysin] :: 7.09
CCc1c2c(nc3ccc(OC(=O)N4CCC(N5CCCCC5)CC4)cc13)-c1cc3c(c(=O)n1C2)COC(=O)[C@]3(O)CC [CPT-11] :: 5.25
CCN(CC)CCNC(=O)c1c(C)[nH]c(/C=C2\C(=O)Nc3ccc(F)cc32)c1C [Sunitinib malate] :: 4.92
CC(=O)O[C@@]12CO[C@@H]1C[C@H](O)[C@@]1(C)C(=O)[C@H](O)C3=C(C)[C@@H](OC(=O)[C@H](O)[C@@H](NC(=O)OC(C)(C)C)c4ccccc4)C[C@@](O)([C@@H](OC(=O)c4ccccc4)[C@H]21)C3(C)C [Docetaxel] :: 7.92
COc1ccc(-c2cc3c(C)nc(N)nc3n([C@H]3CC[C@H](OCCO)CC3)c2=O)cn1 :: 7.36
COc1cc2ncnc(Nc3ccc(F)c(Cl)c3)c2cc1OCCCN1CCOCC1 [Gefitinib] :: 5.03
O=C1NC(=O)/C(=C/c2ccc3nccc(-c4ccncc4)c3c2)S1 :: 5.92
CC[C@H](CO)Nc1nc(NCc2ccccc2O)c2ncn(C(C)C)c2n1 [Olomoucine II] :: 5.01
CN(Cc1cnc2nc(N)nc(N)c2n1)c1ccc(C(=O)N[C@@H](CCC(=O)O)C(=O)O)cc1 [Methotrexate] :: 6.8

###

system: UACC812; test: -log10 GI50 (growth inhibition 50%) (-log10(M)); higher = more potent growth inhibition
result-type: -log10 GI50
Answer using only a numeral; do not append any unit.

// worked examples, -log10 GI50 included
CC(C)Oc1ccc(C(=O)N[C@H](CNC(=O)CN(C)C)Cc2ccc(-c3cn4cccc([C@H](C)O)c4n3)cc2)cc1Cl :: 7.94
COc1ccc(C2=N[C@@H](c3ccc(Cl)cc3)[C@@H](c3ccc(Cl)cc3)N2C(=O)N2CCNC(=O)C2)c(OC(C)C)c1 [Nutlin 3a] :: 5.45
CCC1=C[C@@H]2CN(C1)Cc1c([nH]c3ccccc13)[C@@](C(=O)OC)(c1cc3c(cc1OC)N(C)[C@H]1[C@@](O)(C(=O)OC)[C@H](OC(C)=O)[C@]4(CC)C=CCN5CC[C@]31[C@@H]54)C2 [Vinorelbine] :: 7.13
CC[C@H](CO)Nc1nc(NCc2ccccc2O)c2ncn(C(C)C)c2n1 [Olomoucine II] :: 5.19
Oc1cc(-c2nc(-c3ccccc3)[nH]c2-c2ccncc2)ccc1Cl :: 4.9
CCCC(CCC)C(=O)O [Valproic acid] :: 2.59

// next item, -log10 GI50 requested
What measured -log10 GI50 goes with `C[C@@H](Oc1cc(-n2cnc3ccc(CN4CCN(C)CC4)cc32)sc1C(N)=O)c1ccccc1C(F)(F)F` ? 4.99

###

tested on: MDAMB361; test: -log10 GI50 (growth inhibition 50%) (-log10(M)); higher = more potent growth inhibition
result-type: -log10 GI50

// worked examples, -log10 GI50 included
Nc1[nH]nc2nnc(-c3c(-c4ccccc4)nn4ccccc34)cc12 :: 4.67
COc1ncc(-c2ccc3nccc(-c4ccnnc4)c3c2)cc1NS(=O)(=O)c1ccc(F)cc1F :: 8.82
C[C@@H](Oc1cc(-c2cnn(C3CCNCC3)c2)cnc1N)c1c(Cl)ccc(F)c1Cl :: 5.44
Nc1nc2[nH]cc(CCc3ccc(C(=O)N[C@@H](CCC(=O)O)C(=O)O)cc3)c2c(=O)[nH]1 :: 6.19
C/C(=C\c1csc(C)n1)[C@@H]1C[C@@H]2O[C@]2(C)CCC[C@H](C)[C@H](O)[C@@H](C)C(=O)C(C)(C)[C@@H](O)CC(=O)N1 [Ixabepilone] :: 8.64

(1) Cc1ccc(NC(=O)c2ccc(CN3CCN(C)CC3)cc2)cc1Nc1nccc(-c2cccnc2)n1
(2) CC(C)C[C@@H](C=O)NC(=O)[C@H](CC(C)C)NC(=O)[C@H](CC(C)C)NC(=O)OCc1ccccc1
I'm curious whether 1 or 2 has the smaller -log10 GI50 number. Which is it? Answer format: the label of the selected item. 1
(1: 4.57, 2: 6.62)

###

tested on: HCC1954; experiment: -log10 GI50 (growth inhibition 50%) (-log10(M)); higher = more potent growth inhibition
result-type: -log10 GI50

CC(=O)NCC(=O)N1[C@@H]2CC[C@H]1c1ccc(Nc3ncc(C(F)(F)F)c(NC4CCC4)n3)cc12 :: 5.16
COC1=C2C[C@@H](C)C[C@H](OC)[C@H](O)[C@@H](C)/C=C(\C)[C@H](OC(N)=O)[C@@H](OC)/C=C\C=C(/C)C(=O)NC(=CC1=O)C2=O [Geldanamycin] :: 8.14
O=C(c1ccc(Nc2nccc(-c3cc4ccccc4s3)n2)cc1)N1CCC(N2CCCC2)CC1 [IKK 16] :: 5.77
CCN(CC)CCNC(=O)c1c(C)[nH]c(/C=C2\C(=O)Nc3ccc(F)cc32)c1C [Sunitinib malate] :: 5.26

(A) NS(=O)(=O)c1ccc(Nc2nc(OCC3CCCCC3)c3[nH]cnc3n2)cc1 [NU6102]
(B) CC(C)C[C@H](NC(=O)[C@H](Cc1ccccc1)NC(=O)c1cnccn1)B(O)O [Bortezomib]
I'm curious whether A or B has the smaller -log10 GI50 number. Which is it? Answer format: the label of the selected item. A
(A: 4.34, B: 8.13)

(1) CC(=O)Nc1cccc(-n2c(=O)n(C3CC3)c(=O)c3c(Nc4ccc(I)cc4F)n(C)c(=O)c(C)c32)c1
(2) O=C(CCCCCCC(=O)Nc1ccccc1)NO [Vorinostat]
Which value of -log10 GI50 is numerically greater: that of 1 or that of 2 ? Answer format: the label of the selected item. 1
(1: 6.79, 2: 3.95)

(1) COc1ncc(-c2ccc3nccc(-c4ccnnc4)c3c2)cc1NS(=O)(=O)c1ccc(F)cc1F
(2) O=C1NC(=O)/C(=C/c2ccc(-c3ccc(F)cc3O)o2)S1
I'm curious whether 1 or 2 has the smaller -log10 GI50 number. Which is it? Answer format: the label of the selected item. 2
(2: 5.46, 1: 8.04)

(1) Cc1c(O)cccc1C(=O)N[C@@H](CSc1ccccc1)[C@H](O)CN1C[C@H]2CCCC[C@H]2C[C@H]1C(=O)NC(C)(C)C [Nelfinavir]
(2) CC(=O)O[C@H]1C(=O)[C@@]2(C)[C@H]([C@H](OC(=O)c3ccccc3)[C@]3(O)C[C@H](OC(=O)[C@H](O)[C@@H](NC(=O)c4ccccc4)c4ccccc4)C(C)=C1C3(C)C)[C@]1(OC(C)=O)CO[C@@H]1C[C@@H]2O [Paclitaxel]
I'm curious whether 1 or 2 has the smaller -log10 GI50 number. Which is it? Answer format: the label of the selected item. 1

###

system: MCF10F; test: -log10 GI50 (growth inhibition 50%) (-log10(M)); higher = more potent growth inhibition
result-type: -log10 GI50
Answer using only a numeral; do not append any unit.

COc1cccc2c1C(=O)c1c(O)c3c(c(O)c1C2=O)C[C@@](O)(C(=O)CO)C[C@@H]3O[C@H]1C[C@H](N)[C@H](O)[C@H](C)O1 [Doxorubicin] :: 6.64
CN(C)C/C=C/C(=O)Nc1cc2c(Nc3ccc(F)c(Cl)c3)ncnc2cc1O[C@H]1CCOC1 [BIBW2992] :: 7.01
CC[C@H](CO)Nc1nc(NCc2ccccc2O)c2ncn(C(C)C)c2n1 [Olomoucine II] :: 5.03

What measured -log10 GI50 goes with Cc1ccc(NC(=O)c2ccc(CN3CCN(C)CC3)cc2)cc1Nc1nccc(-c2cccnc2)n1 [Imatinib] ? 4.71

###

system: LY2; assay: -log10 GI50 (growth inhibition 50%) (-log10(M)); higher = more potent growth inhibition
Parameter -log10 GI50: see the listing below.
Answer using only a numeral; do not append any unit.

O=C(CCCCCCC(=O)Nc1ccccc1)NO :: 3.86

What measured -log10 GI50 goes with `CCCC(CCC)C(=O)O` ? 2.96

And the next one, `C[C@]12O[C@H](C[C@]1(O)CO)n1c3ccccc3c3c4c(c5c6ccccc6n2c5c31)CNC4=O` ? 6.6
